Data provenance is patent US20160272707A1.

tested.target: T1, VSTM5 monomer (UniProt A8MXK1 29-147, limits assumed)
T1 construct: also called monomeric VSTM5 antigen; VSTM5 antigen
T1 sequence (looked up): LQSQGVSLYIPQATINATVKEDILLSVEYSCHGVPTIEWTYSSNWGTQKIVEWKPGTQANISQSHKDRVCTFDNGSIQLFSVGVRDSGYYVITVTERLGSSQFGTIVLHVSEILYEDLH
assay.explanation: SPR, VSTM5 monomer binding to the IgG
pKd: −log10 of the molar value.
List of pKd values.

[
  {
    "binder": "49-01.F05 (antibody, V domains shown) VH: QVQLQQWGAGLLKPSETLSLTCAVYGGSFSGYYWSWIRQPPGKGLEWIGEINHSGSTNYNPSLKSRVTISVDTSKNQFSLKLSSVTAADTAVYYCARGWRGGSFMDVWGQGTTVTVSS VL: QSALTQPRSVSGSPGQSVTISCTGTSSDVGGYNYVSWYQQHPGKAPKLMIYDVIKRPSGVPDRFSGSRSGNTASLTISGLQAEDEADYYCCSYAGTHWVFGGGTKLTVLG",
    "pKd": 6.72
  },
  {
    "binder": "49-01.F01 (antibody, V domains shown) VH: EVQLVESGGGVVKPGESLRLLCTASGLSFNKYSINWVRQAPGGGLEWVSSIESGSGHIYYADSLEGRFTISRDNAKNSVTLEMNSLRVEDTALYYCVSGPEDKWLLQLYFESWGQGTLVTVSS VL: EIVLTQSPATLSLSPGERATLSCRTSQSSPSDNLAWYQHKPGQAPRLLIYGGSNRATGIPARFSGSGSGTDFTLTISSLEPEDFAVYYCQQYGSSPLTFGGGTKVDIKR",
    "pKd": 8.70
  },
  {
    "binder": "50-01.B01 (antibody, V domains shown, also called 50-01.801) VH: QVQLQESGPGLMKPSQTLSLTCTVSGDSITRGSSYWSWIRQSDGKGLEWIGHIYSGGDTDYNPALKSRVTISADASRGQFLLRLTSMTAADTAVYYCARDRGAYGMDVWGQGTTVTVSS VL: QPVLTQSSSASASLGASVKLTCTLSSEHDRYAIAWLQQKPEKGPRYLMKVNSDGSHRKGDGIPDRFSGSSSGAERYLTISRLQSEDEADYYCQTWGIGIRVFGGGTQLTVLG",
    "pKd": 6.18
  },
  {
    "binder": "50-01.A04 (antibody, V domains shown) VH: QVQLVQSGAEVKKPGESLKISCKGSGYDFNNYWIGWVRQTPEKGLEWMGIVYPGDHPGDYHIRYGPSFQGQVTISADRSITTAYLQWRNLKASDTAMYYCARLGSSKDLDYWGQGTLVTVSS VL: EIVLTQSPATLSLSPGERATLSCRASQSVSGHLDWYQQKPGQSPRLLIYDASNRATGIPARFSGSGSGTDFSLTISSLEPEDFAVYYCQHRSNWPWTFGQGTKVEIKR",
    "pKd": 7.28
  }
]
